Tested on: human hepatocytes
ASSAY_NOTES: Intrinsic clearance in cryopreserved human hepatocytes
Type: in vitro ADME
MEASURED_QUANTITY: Intrinsic clearance half-life, Human

Quick one: Intrinsic clearance half-life, Human of CCOc1nc2ccc(OC)cc2n1CCCNC(C)=O [IA2-120] ?
>2 h

Quick one: Intrinsic clearance half-life, Human of COc1ccc2cccc(CCNC(C)=O)c2c1 [IA2-76, agomelatine, reference compound] ?
0.8 h

Quick one: Intrinsic clearance half-life, Human of CCOc1nc2cc(Cl)c(OC)cc2n1CCCNC(C)=O [IA2-142] ?
>2 h

Quick one: Intrinsic clearance half-life, Human of COc1ccc2nc(OC)n(CCCNC(C)=O)c2c1 [IA2-140] ?
>2 h

Quick one: Intrinsic clearance half-life, Human of CCOc1nc2cc(Cl)c(OC)cc2n1CCNC(C)=O [IA2-121] ?
>2 h
